Test system: TNFα
Test: cells
Type: cell-based, human
Conditions: Homo sapiens, Monocyte, LPS-stimulated human monocytes, TNFα content; read-out: EC50 TNF
Listed below: log10 EC50 values for each entry.
Parameter Measured: log10 EC50 (log10 of the value in nM)

>>> observed_result("COc1ccc2nc(Nc3cc(-c4ccc5cc(C#N)cnn45)ncc3C(=O)NC[C@@H](F)C(C)(C)O)sc2c1")
2.87
>>> observed_result("CC(C)(O)[C@H](F)CNC(=O)c1cnc(-c2ccc3cc(C#N)cnn23)cc1N[C@H]1CCOC[C@@H]1F")
1.98
>>> observed_result("N#Cc1cnn2c(-c3cc(NC45CCC(O)(CC4)CC5)c(C(=O)NCC(=O)N4CCCCC4)cn3)ccc2c1")
1.93
>>> observed_result("CC(C)Nc1cc(-c2ccc3cc(C#N)cnn23)ncc1C(=O)NC1CCC(NC(=O)C(C)(C)O)CC1 (stereo not shown)")
2.11
>>> observed_result("CC(C)(O)[C@H](F)CNC(=O)c1cnc(-c2ccc3cc(C#N)cnn23)cc1N[C@@H]1CC[C@H](N)C1")
2.79
>>> observed_result("CC(C)Nc1cc(-c2ccc3cc(C#N)cnn23)ncc1C(=O)NCCC1COC1")
1.93
>>> observed_result("CC(C)(O)[C@H](F)CNC(=O)c1cnc(-c2ccc3cc(C#N)cnn23)cc1Nc1ccc(N2CCNCC2)nc1")
1.71

----------
Listed below: EC50 values for each entry.
Test system: TNFα
Experiment: cells
Format: cell-based, human
Settings: Homo sapiens, Monocyte, LPS-stimulated human monocytes, TNFα by TR-FRET; read-out: EC50 TNF
Parameter Measured: EC50 (nM)

>>> observed_result("COCC(=O)NC[C@H]1C[C@H](Nc2cc(-c3ccc4cc(C#N)cnn34)ncc2C(=O)NC[C@@H](F)C(C)(C)O)C1")
47
>>> observed_result("COC(=O)N1CCOC[C@H]1CNc1cc(-c2ccc3cc(C#N)cnn23)ncc1C(=O)NC[C@@H](F)C(C)(C)O")
416
>>> observed_result("N#Cc1cnn2c(-c3cc(NC45CCC(O)(CC4)CC5)c(C(=O)NC4(CF)CC4)cn3)ccc2c1")
68
>>> observed_result("COC(=O)NC[C@H]1C[C@H](Nc2cc(-c3ccc4cc(C#N)cnn34)ncc2C(=O)NC2CCC(NC(=O)C3CC3)CC2)C1 (stereo partly shown)")
23
>>> observed_result("COC[C@@H]1CCN(c2ccc(Nc3cc(-c4ccc5cc(C#N)cnn45)ncc3C(=O)NC[C@@H](F)C(C)(C)O)cn2)C1")
70
>>> observed_result("Cn1cncc1CNC(=O)c1cnc(-c2ccc3cc(C#N)cnn23)cc1NC12CCC(O)(CC1)CC2")
583
>>> observed_result("CNC(=O)CCNC(=O)c1cnc(-c2ccc3cc(C#N)cnn23)cc1NC12CCC(O)(CC1)CC2")
327

----------
Tested on: TNFα
Assay: cells
Assay type: cell-based, human
Details: Homo sapiens, Monocyte, LPS-stimulated human monocytes, TNFα content; read-out: EC50 TNF
Parameter Measured: EC50

>>> observed_result("COC(=O)c1ccc(Nc2cc(-c3ccc4cc(C#N)cnn34)ncc2C(=O)NC[C@@H](F)C(C)(C)O)cc1OC")
"315 nM"
>>> observed_result("CC(C)Nc1cc(-c2ccc3cc(C#N)cnn23)ncc1C(=O)N[C@H]1CC[C@H](C(C)(C)O)CC1")
"62 nM"
>>> observed_result("CC(=O)N[C@@H]1CC[C@H](Nc2cc(-c3ccc4cc(C#N)cnn34)ncc2C(=O)NC[C@@H](F)C(C)(C)O)C1")
"198 nM"
